target: L-lactate dehydrogenase (Plasmodium falciparum (isolate CDC / Honduras)); assay: PfLDH activity inhibition – cell lysate, 3D7 strain, counter-screen for P. falciparum growth inhibition project (AID 2304);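 further: 0% = vehicle and 100% = reference inhibitor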; details: P. falciparum 3D7 crude extract, LDH APAD/NBT absorbance; at 2 µM; hits give high values
Activity calls are given as the source filed them. How the calls were made is not given here.
For each of the compounds below, state its inhibition.

Problem: Consider the compound COc1ccc2ccc(F)c(CCN3CCC(NCc4cc5c(cn4)OCCO5)CC3)c2n1 and give its measured inhibition.
Result: 3% (inactive)

Problem: Consider the compound COc1ccc(/C=C/c2ccc(-c3c(C)[nH]c(C)c(Cl)c3=O)cc2)cc1OC and give its measured inhibition.
Result: -8% (inactive)

Problem: Consider the compound OCCNc1nc(Nc2ccc(Cl)cc2)nc2ccccc12 and give its measured inhibition.
Result: -1% (inactive)

Problem: Consider the compound COc1ccc(CNC2CCN(C)CC2)cc1-c1ccc(S(=O)(=O)NCCc2ccccn2)c(F)c1 and give its measured inhibition.
Result: 1% (inactive)

Problem: Consider the compound N#Cc1cccc(CN(Cc2ccc(Cl)c(Cl)c2)S(=O)(=O)c2cccc([N+](=O)[O-])c2)c1 and give its measured inhibition.
Result: -8% (inactive)

Problem: Consider the compound COc1ccc(CNC2CCN(C)CC2)cc1-c1ccc(S(=O)(=O)NCCc2ccccn2)cc1 and give its measured inhibition.
Result: -5% (inactive)

Problem: Consider the compound CC(C)Oc1ccc(C=CC(=O)Nc2noc3ccccc23)cc1 and give its measured inhibition.
Result: 4% (inactive)

Problem: Consider the compound CCC[C@@H]([C@@H](CC1CCC(C)CC1)C(=O)N[C@@H](CCCCNC(=O)c1ccccn1)C(=O)Nc1nccs1)N(O)C=O (some centres undefined) and give its measured inhibition.
Result: -1% (inactive)

Problem: Consider the compound COCCNCc1ccc(-c2ccccc2CNC2CCN(Cc3ccccc3)CC2)cc1 and give its measured inhibition.
Result: -1% (inactive)

====

For each of the compounds below, state its growth inhibition.
assay: inhibition of 3D7 malaria parasite growth – strain 3D7 (AID 2306);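 further: 0% = DMSO wells and 100% = chloroquine plus artemisinin control wells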; settings: P. falciparum 3D7 erythrocytic growth, LDH absorbance, 72 h; at 2 µM; hits give high values
Respond numerically; units are % and should not be typed.

Problem: Consider the compound CN(c1ccc(NC(=O)Nc2cc(C(F)(F)F)ccc2F)cc1)c1ccnc(NCCN2CCCC2)n1 and give its measured growth inhibition.
Result: 93

Problem: Consider the compound CC(C)(C)c1ccc(OC(=O)c2ccc(NC(=O)N[C@@H](Cc3ccc(O)cc3)C(=O)NC3CCN(Cc4ccc(O)cc4)C3)cc2)cc1 (stereo partly drawn) and give its measured growth inhibition.
Result: 92

Problem: Consider the compound COc1cc(NC(=O)c2cc([N+](=O)[O-])ccc2NC(=O)CNC2CCCC(C)C2C)cc(OC)c1 (stereo not drawn) and give its measured growth inhibition.
Result: 97

Problem: Consider the compound CN1CCN=C1c1ccc(NC(=O)Nc2ccc(C3=NCCN3C)cc2)cc1 and give its measured growth inhibition.
Result: 85

Problem: Consider the compound CN(C)c1ccc(-c2ccc(C(=O)NC3CCN(Cc4ccccc4)CC3)s2)cc1 and give its measured growth inhibition.
Result: 92

Problem: Consider the compound O=C(NCc1cccc(F)c1)Nc1cccc(-c2ccc(-c3nc4ccc(F)cc4[nH]3)cc2)c1 and give its measured growth inhibition.
Result: 84

Problem: Consider the compound COc1ccc(C(=O)C2CCN(CCCCNC(=O)c3ccc(NC(=O)c4cc(Cl)cc(Cl)c4)cc3)CC2)cc1 and give its measured growth inhibition.
Result: 100

Problem: Consider the compound Cc1cc(-c2ccc3c(c2)CCN(CCC2CCC(NC(=O)/C=C/c4ccc(F)cc4)CC2)CC3)on1 (stereo not drawn) and give its measured growth inhibition.
Result: 98

====

target: L-lactate dehydrogenase (Plasmodium falciparum (isolate CDC / Honduras)); assay: PfLDH activity inhibition – cell lysate, 3D7 strain, counter-screen for P. falciparum growth inhibition project (AID 2304);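 further: 0% = vehicle and 100% = reference inhibitor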; settings: P. falciparum 3D7 crude extract, LDH APAD/NBT absorbance; at 2 µM; hits give high values
For each of the compounds below, state its inhibition.
Respond numerically; units are % and should not be typed.

Problem: Consider the compound C=CCOC(=O)N1CCC(CNCc2cccc(-c3ccc(-c4nc5ccccc5[nH]4)s3)c2)C1 (centres undefined) and give its measured inhibition.
Result: 0

Problem: Consider the compound O=C(Nc1cccc(CN2CCCN(Cc3cccc(O)c3)CC2)c1)c1ccc2ccccc2c1 and give its measured inhibition.
Result: -4

Problem: Consider the compound O=S(=O)(c1c(Cl)cc(Cl)cc1Cl)N1CCCCC(c2ccc(C(F)(F)F)cc2)=N1 and give its measured inhibition.
Result: -5

Problem: Consider the compound CC(=O)Nc1ccc(NC(=O)c2cc(-c3ccc(C)cc3O)n[nH]2)cc1 and give its measured inhibition.
Result: -6

Problem: Consider the compound O=C(Nc1cccc(-c2csc(-c3nc4ccccc4[nH]3)c2)c1)c1cc(=O)c2ccccc2[nH]1 and give its measured inhibition.
Result: -2

Problem: Consider the compound CC(=O)N1N=C(c2ccc(Cl)cc2)Sc2c1nc(-c1ccccc1)n2C(C)=O and give its measured inhibition.
Result: 3

Problem: Consider the compound c1ccc2[nH]c(-c3ccc(-c4ccc(CN5CCCCC5)cc4)s3)nc2c1 and give its measured inhibition.
Result: 2

Problem: Consider the compound CCc1c(C)nc(-n2nc(C)cc2NC(=O)CCc2ccccc2)[nH]c1=O and give its measured inhibition.
Result: -1

Problem: Consider the compound CCN(CC)C(=NCCCCCCCCN=C(/N=C(/N)Nc1ccc(Cl)cc1)N(CC)CC)/N=C(/N)Nc1ccc(Cl)cc1 and give its measured inhibition.
Result: -3

Problem: Consider the compound CCN1CCN(c2cc(C)c3cc(NC(=O)c4ccc(OC)c([N+](=O)[O-])c4)ccc3n2)CC1 and give its measured inhibition.
Result: 0

Problem: Consider the compound Fc1ccc(COc2ccc(Nc3ncnc4ccc(I)cc34)cc2Cl)cc1 and give its measured inhibition.
Result: -5

Problem: Consider the compound CN(C)Cc1ccc2cc(NC(=O)c3ccc(-c4ccc(Cl)cc4)cc3)ccc2n1 and give its measured inhibition.
Result: -1

Problem: Consider the compound CCc1cc(N2CCN(c3ccccc3F)CC2)nc(SCc2ccc(C(=O)NC3CC3)o2)n1 and give its measured inhibition.
Result: 1

Problem: Consider the compound CCOc1ccc(C2CCN(CCCCNC(=O)c3ccc(NC(=O)c4ccc(Cl)cc4)cc3)CC2)c(OCC)c1 and give its measured inhibition.
Result: 0

Problem: Consider the compound CCCC(CNCc1cccc(I)c1)CNc1cc(=O)c2ccccc2[nH]1 (centres undefined) and give its measured inhibition.
Result: 7

Problem: Consider the compound Fc1ccc(Nc2ccnc3cc(I)ccc23)c(Cl)c1 and give its measured inhibition.
Result: 1

Problem: Consider the compound Cc1ccc(Cl)c2sc(N3CCN(C(=O)c4ccc([N+](=O)[O-])o4)CC3)nc12 and give its measured inhibition.
Result: -5

Problem: Consider the compound CCCN1CCc2c(sc3nc(SCC(=O)Nc4ccc(C)cc4)n(-c4ccc(C)cc4)c(=O)c23)C1 and give its measured inhibition.
Result: -5

Problem: Consider the compound Cc1ccc(NC(=O)c2ccc3ncccc3c2)cc1OC1CCN(Cc2ccc(F)cc2)CC1 and give its measured inhibition.
Result: 1

====

experiment: antimalarial activity against Dd2 strain (AID 2302);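 further: 0% = DMSO untreated growth and 100% = chloroquine plus artemisinin killed control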; conditions: P. falciparum Dd2 in RBCs, LDH growth readout, 72 h; at 2 µM
Activity calls are given as the source filed them.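 How the source made its calls: active means growth inhibition above 50% at the single 2 µM test dose, taken to imply half-maximal potency below 2 µM; inactive means the rest.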
Assign a class; possible classes are active, inactive

Problem: Hey, what did the test say about O=C(Nc1cccc(CN2CCCN(Cc3cccc(O)c3)CC2)c1)c1ccc2ccccc2c1 ?
Result: inactive

Problem: Hey, what did the test say about c1ccc2c(NCCCCCCCNc3ccnc4ccccc34)ccnc2c1 ?
Result: active

Problem: Hey, what did the test say about Fc1ccc(COc2ccc(Nc3ncnc4ccc(I)cc34)cc2Cl)cc1 ?
Result: inactive

Problem: Hey, what did the test say about Clc1ncnc2ncn(Cc3cccc(Br)c3)c12 ?
Result: active

Problem: Hey, what did the test say about CC(Cc1ccc(OCc2ccccc2)cc1)Nc1nc2ccccc2c(=O)[nH]1 (stereo not drawn) ?
Result: active

Problem: Hey, what did the test say about O=C(Nc1ccc(-n2ccc(C(F)(F)F)n2)cc1)c1cccs1 ?
Result: active

Problem: Hey, what did the test say about c1cn(-c2ccc(CNc3nccc(Nc4ccc(OCCN5CCOCC5)cc4)n3)cc2)cn1 ?
Result: inactive

Problem: Hey, what did the test say about C[C@@H]1CN(c2cnn(Cc3cccc(NC(=O)Nc4cccc(C(F)(F)F)c4)c3)c(=O)c2Cl)C[C@H](C)N1 ?
Result: active

Problem: Hey, what did the test say about Cc1ccc2nc(-c3cc(-c4cccc(CCN5CCOCC5)c4)cnc3N)[nH]c2c1 ?
Result: active

Problem: Hey, what did the test say about Cc1cc(NC(=O)NCCN2CCC(NC(=O)c3ccc(Cl)cc3)CC2)c2ccccc2n1 ?
Result: active

Problem: Hey, what did the test say about CCC[C@@H]([C@@H](CC1CCCCC1)C(=O)N[C@@H](CCCCNS(C)(=O)=O)C(=O)Nc1nccs1)N(O)C=O ?
Result: active

Problem: Hey, what did the test say about CCCOc1ccc(C(=O)Nc2nonc2-c2ccc(OC)c(OC)c2)cc1 ?
Result: active

Problem: Hey, what did the test say about NC(=NCCCCC1CCCCC1)c1cccc(C(N)=NCCCCC2CCCCC2)n1 ?
Result: inactive

Problem: Hey, what did the test say about CCc1ccc(C2=Nn3c(nnc3-c3cccs3)SC2)cc1 ?
Result: inactive

Problem: Hey, what did the test say about COc1ccc(CNC2CCN(C)CC2)cc1-c1ccc(S(=O)(=O)NCCc2ccccn2)cc1 ?
Result: inactive

Problem: Hey, what did the test say about Cc1ccc(NC(=O)c2ccc(CN3CCCN(CCC(C)C)CC3)cc2)cc1F ?
Result: inactive

Problem: Hey, what did the test say about O=C(NC1CCCCC1)N(Cc1ccc(-c2ccc(CNCc3ccc4c(c3)OCO4)cc2)cc1)C1CCN(Cc2ccccc2)CC1 ?
Result: active

Problem: Hey, what did the test say about CCNC(=O)Nc1ccc(-c2cccc(-c3nc4c(C)cccc4[nH]3)c2)cc1 ?
Result: inactive

Problem: Hey, what did the test say about COc1cc(Cc2cnc(N)nc2N)cc(OCC(C)(C)C(=O)O)c1OC ?
Result: inactive

Problem: Hey, what did the test say about COc1ccccc1C1CCN(C2CCC(NC(=O)/C=C/c3ccc(F)c(F)c3)CC2)CC1 (stereo not drawn) ?
Result: inactive

Problem: Hey, what did the test say about COc1ccc(N2CCN(CCCN3CCN(C(=O)c4ccc(/C=C/c5ccc(Cl)c(Cl)c5)cc4)CC3)CC2)c(OC)c1 ?
Result: active

Problem: Hey, what did the test say about Cc1cnc(C(=O)Nc2ccc3c(c2)CCCN(Cc2c[nH]c4cnccc24)C3)cn1 ?
Result: inactive

Problem: Hey, what did the test say about CC(Cc1ccc(OCCN2CCN(c3cccc(C(F)(F)F)c3)CC2)cc1)NCC(O)c1cccc(C(F)(F)F)c1 (stereo not drawn) ?
Result: active

Problem: Hey, what did the test say about CCN1CCN(c2cc(C)c3cc(NC(=O)c4ccc(OC)c([N+](=O)[O-])c4)ccc3n2)CC1 ?
Result: active

Problem: Hey, what did the test say about CCC(C)CN1CCCN(c2ccc(NC(=O)c3cccs3)cc2)CC1 (stereo not drawn) ?
Result: active

Problem: Hey, what did the test say about CN(C)CCNC(=O)c1csc(Nc2ccc(Cl)c(Cl)c2)n1 ?
Result: active

Problem: Hey, what did the test say about COc1ccc(S(=O)(=O)N2CCCc3ccc(Br)cc32)cc1N1CCN(C(=O)C(Cl)(Cl)Cl)CC1 ?
Result: active

Problem: Hey, what did the test say about N#Cc1ccc(N2CCN(C(=O)c3cccc(-c4noc(C(F)(F)F)n4)c3)CC2)nc1 ?
Result: active

Problem: Hey, what did the test say about COc1cc(Br)ccc1N1CCN(CCCCNC(=O)c2ccc(NC(=O)c3ccc(Cl)cc3)cc2)CC1 ?
Result: inactive

Problem: Hey, what did the test say about CC(C)N1CCN(C(CN2CCN(CCCOc3cccc(-c4ccccc4)c3)CC2)c2ccc(F)cc2)CC1 (stereo not drawn) ?
Result: active

Problem: Hey, what did the test say about COc1cc(NCCCNC(=O)c2ccc(Cl)c(Cl)c2)nc2ccccc12 ?
Result: active

Problem: Hey, what did the test say about COc1ccccc1NC(=O)Nc1ccc(-c2cccc(-c3nc4ccccc4[nH]3)c2)cc1 ?
Result: inactive

Problem: Hey, what did the test say about CCCCCCn1c(Sc2ccc(C#N)c([N+](=O)[O-])c2)nnc1-c1cccc(Cl)c1 ?
Result: active

Problem: Hey, what did the test say about CCOC(=O)c1ccc(COc2ccc(C)nc2)cc1 ?
Result: inactive

Problem: Hey, what did the test say about C[C@H](Cc1ccc(Oc2ccc(C[C@@H](C)NC[C@H](O)c3cccc(Cl)c3)cc2)cc1)NC[C@H](O)c1cccc(Cl)c1 ?
Result: active

Problem: Hey, what did the test say about CCCOc1ccc(C=C(CC(=O)O)c2nc3ccccc3s2)cc1OCC ?
Result: active

Problem: Hey, what did the test say about CC(C)(C)NCCN(Cc1ccc(-c2ccc(C(F)(F)F)cc2)cc1)C(=O)Cn1c(CCc2cccc(F)c2F)nc(=O)c2ccccc21 ?
Result: active

Problem: Hey, what did the test say about Cc1cc(OCC2CCCO2)c2cc(NC(=O)C(=O)Nc3ccc4nc(C)cc(OCC5CCCO5)c4c3)ccc2n1 (stereo not drawn) ?
Result: inactive
